Measured on: UPR counterscreen luciferase reporter, luminescence
Assay procedure: luciferase reporter activation, UPR counterscreen line – cell-based, luminescence, counter-screen for adaptive UPR activator project, dose response (AID 489027)
Calls of active or inactive are those of the source. No rule for the calls is given here.
Outcome codes: Yes (active), No (inactive)

Compound | Classification
CCOc1cc(/C=N/NC(N)=S)cc(Br)c1OCc1ccccc1C | Yes
Cc1cc(NC(=O)CSc2nc3sc(C)c(C)c3c(=O)n2C2CCCC2)no1 | No
Cn1nnnc1Sc1ncnc2scc(-c3ccc(Cl)cc3)c12 | Yes
Cc1nc(NC(=O)c2cc3c(C)nn(-c4ccccc4)c3s2)sc1C(=O)Nc1ccccc1 | No
O=C(COC(=O)c1ccc2[nH]c3c(c2c1)CCCC3)Nc1ccccc1Cl | No
O=C(Nc1ccc(C(F)(F)F)cc1)c1cc(-c2cccnc2)nc2ccc(Br)cc12 | Yes
O=C(/C=C/c1ccco1)NC(=S)Nc1ccc(O)c(-c2nc3ccccc3s2)c1 | Yes
OCCCn1c(C2CCCN2c2nc(-c3ccc(F)cc3)cs2)nc2cc(Cl)c(N3CCCCC3)cc21 (stereo not drawn) | No
COc1ccc(CCn2c(C3CCCCC3)nc3c(c(=O)c4ccccc4n3C)c2=O)cc1 | No
Cc1ccc(Cn2c(=O)n(-c3ccccc3)c(=O)c3ccc(C(=O)NCc4ccco4)cc32)cc1 | No
CC(C)=CCc1c2c(c3occ(-c4ccc(O)cc4)c(=O)c3c1O)C=CC(C)(C)O2 | Yes
CCOC(=O)/C=c1\s/c(=C\c2ccc3cc(OC)ccc3c2)c(=O)n1CC(=O)NCC1CCCO1 (stereo not drawn) | No
Cc1cccc(Nc2nc3c(S(=O)(=O)c4ccccc4)nnn3c3ccccc23)c1C | Yes

Reference source for all entries: PubChem BioAssay AID489027
